# Tested on: SR leukemia
# test_method_notes: NCI tumour cell line growth inhibition, 48 h
Below: a set of entries, each annotated with reported TGI.
measure: TGI

molecule	result
CN(Cc1cccc2ccsc12)/N=C\c1ccc(Cl)cc1	> 100 µM
COc1ccc(C(C)Nc2cc(OC)c(OC)c(OC)c2)cc1 (stereo not drawn)	> 100 µM
CN(C)c1ccc(/C=c2/sc3nc(=O)c(-c4ccccc4NC(=O)C(F)(F)F)nn3c2=O)cc1	> 100 µM

###

Below: a set of entries, each annotated with reported TGI.
# Test system: SK-MEL-5 melanoma
# test_method_notes: NCI tumour cell line growth inhibition, 48 h

compound	target_entity	TGI
O=[N+]([O-])c1ccc(/C=C/c2ccc(/C=C/c3ccc([N+](=O)[O-])cc3[N+](=O)[O-])cc2)c([N+](=O)[O-])c1	SK-MEL-5 melanoma	> 100 µM
COC(=O)/C(=N\N)C(C(=O)C(=O)Nc1cc(Cl)ccc1Cl)c1nc2ccc([N+](=O)[O-])cc2[nH]c1=O (stereo unspecified)	SK-MEL-5 melanoma	> 100 µM
O=C1CSC(c2cc3cc(Br)ccc3nc2Cl)N1c1ccc(Cl)cc1 (stereo unspecified)	SK-MEL-5 melanoma	37.9 µM
CCc1nc(N)nc(N)c1-c1ccc(N2CCOCC2)c(N=[N+]=[N-])c1	SK-MEL-5 melanoma	> 100 µM
C/C=C1/C=CC2c3[nH]c4ccccc4c3CCN2C1 (stereo unspecified)	SK-MEL-5 melanoma	> 400 µM
NCCCCNOCCCN	SK-MEL-5 melanoma	> 100 µM
